B1: glmS ribozyme (parent)
chain: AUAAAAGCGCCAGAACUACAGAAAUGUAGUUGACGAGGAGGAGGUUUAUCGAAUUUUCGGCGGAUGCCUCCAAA

Variants of: B1
Experimental protocol: kcat; higher = faster cleavage; RNA array
Condition label: with glucosamine-6-phosphate
Fewer inactive variants are shown than the library holds.
In this section, each of the variants is paired with its reported kcat.

# Mutation string, kcat
records = [
    ("U45A C71U", "0.0639 s⁻¹"),
    ("C50A C70U", "3.03e-05 s⁻¹"),
    ("G29C A39U", "0.00205 s⁻¹"),
    ("G59U G66U", "< 1e-05 s⁻¹"),
    ("U47C A64G", "0.00525 s⁻¹"),
    ("U31G U56G C67U", "0.00109 s⁻¹"),
    ("A6U U46C", "2.4e-05 s⁻¹"),
    ("U57A G59A", "1.13e-05 s⁻¹"),
    ("A14G C58U", "0.000263 s⁻¹"),
    ("G13C A15U", "0.000131 s⁻¹"),
    ("A53C G59U", "< 1e-05 s⁻¹"),
]
